# test_details: Lipophilicity, log D of the compound
# Type: physicochemical
# measurement_conditions: octanol/water
property_label: logD
Answer with the value's number alone.

Challenge: Give the measured logD of CC(C)(C)c1cccc(Nc2ccccc2-c2nnn[nH]2)c1 .
Response given: 2.7

Challenge: Fill in: logD of CC(C)(C)c1cccc(Nc2ccccc2C(=O)O)c1 is ___
Response given: 3.2

The record that follows has no logD shown yet.
Challenge: Dear colleague, I am looking for the recorded logD of the following molecule: O=C(O)c1ccccc1Nc1cccc(C(F)(F)F)c1 [FLUFENAMIC ACID]
Response given: 2.2

###

# test_target: Potassium channel subfamily K member 18 (Homo sapiens)
# test_details: Activation of human TRESK channel relative to control
property_label: EC50 (µM)
Report only the number, with the unit µM understood.

Challenge: Sample c1ccc(-c2nnn[nH]2)c(Nc2cccc3c2CCCC3)c1 — what was its EC50?
Response given: 6

###

Form field: EC50 (one value per entry).
# test_target: Potassium channel subfamily K member 18 (Homo sapiens, UniProt Q7Z418)
# Sequence (Q7Z418 whole entry): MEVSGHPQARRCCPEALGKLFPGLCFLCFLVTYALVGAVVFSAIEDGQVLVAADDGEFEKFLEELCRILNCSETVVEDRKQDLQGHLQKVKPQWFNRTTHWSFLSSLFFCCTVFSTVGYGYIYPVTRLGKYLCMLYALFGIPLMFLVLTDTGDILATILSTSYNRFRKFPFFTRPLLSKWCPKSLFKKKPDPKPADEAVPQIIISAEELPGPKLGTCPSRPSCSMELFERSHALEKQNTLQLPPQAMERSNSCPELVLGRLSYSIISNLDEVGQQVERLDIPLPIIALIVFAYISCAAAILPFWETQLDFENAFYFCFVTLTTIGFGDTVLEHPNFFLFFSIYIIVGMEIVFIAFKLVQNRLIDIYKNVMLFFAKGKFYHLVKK
# test_details: Activation of human TRESK channel expressed in HEK293 cells assessed as induction of channel current by whole cell patch clamp assay
# Assay type: cell-based
Give just the numeric value; µM need not be written.

Challenge: Item CC(C)(C)c1cccc(Nc2ccccc2C(=O)O)c1 has what recorded EC50?
Response given: 45

Challenge: Which EC50 reading was recorded for the molecule CC(C)(C)c1cccc(Nc2ccccc2-c2nnn[nH]2)c1 ?
Response given: 18.8

From here, focus on the item given below.
Challenge: So what does the record say about EC50 for O=C(O)c1ccccc1Nc1cccc(C(F)(F)F)c1 ?
Response given: 474

Numbers sourced from ChEMBL document CHEMBL3860067.
